Below, each entry is listed with its recorded Kd.
Molecular target: R26-GFP (truncated R subunit of cAMP dependent protein kinase (PKA), cAMP binding site A, fused to w7 GFP) (Dictyostelium discoideum)
Sequence (P05987 1-170): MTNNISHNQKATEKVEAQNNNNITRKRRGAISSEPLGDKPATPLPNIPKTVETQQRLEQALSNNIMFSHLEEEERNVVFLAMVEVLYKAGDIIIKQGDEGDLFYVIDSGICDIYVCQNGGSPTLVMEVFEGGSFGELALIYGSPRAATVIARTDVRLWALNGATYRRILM
Experiment: FRET titration and competition for cyclic nucleotide binding to purified R26-GFP
quantityKind: Kd

testSmiles: Nc1nc2c(nc(SCCNC(=S)Nc3ccc4c(c3)C(=O)OC43c4ccc(O)cc4Oc4cc(O)ccc43)n2[C@@H]2O[C@@H]3COP(=O)(O)O[C@H]3[C@H]2O)c(=O)[nH]1
quantityKind: Kd
result: ~80 nM
--
testSmiles: Nc1ncnc2c1nc(SCCNC(=S)Nc1ccc3c(c1)C(=O)OC31c3ccc(O)cc3Oc3cc(O)ccc31)n2[C@@H]1O[C@@H]2COP(=O)(O)O[C@H]2[C@H]1O
quantityKind: Kd
result: ~4.5 nM

From: patent US6573059B1
